System: MS2 coat protein
method: apparent KD of MS2 coat protein; designed switch direction (-1 OFF switch, 1 ON switch): -1; higher = weaker reporter binding
protocol conditions: Eterna round: R95; input ligand: none
apparent KD of MS2 coat protein reference
assay endpoint: apparent KD of MS2 coat protein (nM)

- sequence string: "CAGUACUGAGGAUAUACAUGAGGAUCACCCAUGUGUUCCGGCUAGGAAACUAGCAAAAGUAGAAGGCAGUACUG [salish99_ex3_r3_079] (puzzle: Exclusion 3)"
  assay endpoint: "apparent KD of MS2 coat protein"
  observed value: 28.5
- sequence string: "UGAAAGGUAGGAUAUACGAAGAAAAAGGGUAGAAUAAUAACACAUGAGGAUCACCCAUGUAGAAGGACCAAAGG [Mat - Exclusion 2 - Mod of my Tesla design - D9] (puzzle: Exclusion 2)"
  assay endpoint: "apparent KD of MS2 coat protein"
  observed value: 25.2
- sequence string: "CCGGAAUUGAAGGAUAUAGGAGUCGAUAGACACCUAGAAGGUCAGACAUGAGGAUCACCCAUGUGUCCUACCGG [Fiskers Ex 6 - 86] (puzzle: Exclusion 6)"
  assay endpoint: "apparent KD of MS2 coat protein"
  observed value: 17.4
- sequence string: "GGAAAACAUGAGGAUCACCCAUGUAAGGAUAUGCAAAAGGAUAUAGAAGGAAAAUAAAGCAGAAGGUACAAAGG [salish99-ex1_r3_098] (puzzle: Exclusion 1)"
  assay endpoint: "apparent KD of MS2 coat protein"
  observed value: 127
- sequence string: "GCGAAAGCAAGCAAGUGAAACAUGAGGAUCACCCAUGUCCUCAUUUGUUCGUCUUAUAAGCUAUGCGAAAGCAUAGC [Sensor 3, v1 - 7] (puzzle: Sensor v3, turn-off variant 1)"
  assay endpoint: "apparent KD of MS2 coat protein"
  observed value: 19.4
- sequence string: "GAUUAUGCGAGCUUUAGGGACAUGAGGAUCACCCAUGUUCGUCUUAUUGGUCUGGAUACGCUAACAUACCUAAAUCU [JMF 38] (puzzle: Sensor v3, turn-off variant 1)"
  assay endpoint: "apparent KD of MS2 coat protein"
  observed value: 24.8
- sequence string: "ACAAGCUUUUUGCUCGAAGAGUAGAAACGUGAGAGCGAAACAUGAGGAUCACCCAUGUAAAGGCAGUAGGUGAAGAU [JR_SV3TOV2_Sub024] (puzzle: Sensor v3, turn-off variant 2)"
  assay endpoint: "apparent KD of MS2 coat protein"
  observed value: 57.2
- sequence string: "UUUAAUUUUUUUUUUUUACAAGCUUUUUGCUCGUCUUAUACAUGAGGAUCACCCAUGUGAAUGGGAGGUAAAUUAUC [JMF 73] (puzzle: Sensor v3, turn-off variant 2)"
  assay endpoint: "apparent KD of MS2 coat protein"
  observed value: 116
- sequence string: "GACCCUAGGGUCAGACGCACAAGCUUUUUGCUCGUUUUAACAUGAGGAUCACCCAUGUCUAGUGGAUCUGAUCGGGC [Ongege] (puzzle: Sensor v3, turn-off variant 2)"
  assay endpoint: "apparent KD of MS2 coat protein"
  observed value: 29.5
- sequence string: "GAAAAGGUAGGAUAUACGAAAAAAAAGGCUAGAAAAAAAACACAUGAGGAUCACCCAUGUAGAAGGACCAAAAG [salish99_ex2_r3_068] (puzzle: Exclusion 2)"
  assay endpoint: "apparent KD of MS2 coat protein"
  observed value: 24
- sequence string: "UAUUAGCAAGCAGGAUCCCACAUGAGGAUCACCCAUGUGCUCGUCUUAUAAGGUACUGUGACGAAAGUCACGGUACC [Sensor 3, v1 - 90] (puzzle: Sensor v3, turn-off variant 1)"
  assay endpoint: "apparent KD of MS2 coat protein"
  observed value: 90.9
- sequence string: "UCGACCGGAGGAUAUUACGUAAAGUACAUGAGGAUCACCCAUGUGUGGUACCUCGAGUCGUAAGAAGGCCGAAAUA [Teisor] (puzzle: Exclusion 5)"
  assay endpoint: "apparent KD of MS2 coat protein"
  observed value: 505
- sequence string: "GCACGGUAAGUGAGGAUAUACCUCUGGAUACAGAGGUAGAAGGCACAUGAGGAUCACCCAUGUCUAAACCGUGC [Fiskers BMX 4 - 82] (puzzle: Brourd's mod of Exclusion 4)"
  assay endpoint: "apparent KD of MS2 coat protein"
  observed value: 18
- sequence string: "UAAUAACAAGCAGGAUCCUACAUGAGGAUCACCCAUGUGCUCGUCUUAUAAAGUACUAUCACGAAAGUGAUAGUACA [Mat - Sensor v3 - turn-off var 1 - Eli Mod - D70] (puzzle: Sensor v3, turn-off variant 1)"
  assay endpoint: "apparent KD of MS2 coat protein"
  observed value: 315
- sequence string: "CUAGUCCGAGGAUAUAUUAAGUGAUACAUGAGGAUCACCCAUGUUAUUUAAUGGAUGUUAAUAGAAGGCGGACUAG [Mat - Exclusion 5 - JL mod - D76] (puzzle: Exclusion 5)"
  assay endpoint: "apparent KD of MS2 coat protein"
  observed value: 77.8
- sequence string: "AGAAAUGCCCAUGGCCACAAGCUUUUUGCUUAUCUUACCACAUGAGGAUCACCCAUGUGACAUGGGCUCCUGAUAAU [Teedor] (puzzle: Sensor v3, turn-off variant 2)"
  assay endpoint: "apparent KD of MS2 coat protein"
  observed value: 17.1
- sequence string: "GAGAAGGUAGGAUAUACGAAUAAAUAGGGUAGUAAUAAGACACAUGAGGAUCACCCAUGUAGAAGGACCAAGAG [Mat - Exclusion 2 - Mod of my Tesla design - D38] (puzzle: Exclusion 2)"
  assay endpoint: "apparent KD of MS2 coat protein"
  observed value: 21.1
- sequence string: "GAAAAGGUAGGAUAUACGAAAAAAAAGGGUAGAAGAAAAACACAUGAGGAUCACCCAUGUAGAAGGACCAAAAG [salish99_ex2_r3_022] (puzzle: Exclusion 2)"
  assay endpoint: "apparent KD of MS2 coat protein"
  observed value: 23.5
- sequence string: "GCCUAAGCAGGAUAUUCAAUAUGUCACAUGAGGAUCACCCAUGUCCAGCGAAAGCUGGAGGGAGAAGGGCUUAGGC [Mat - Exclusion 5 - Eli mod - D100] (puzzle: Exclusion 5)"
  assay endpoint: "apparent KD of MS2 coat protein"
  observed value: 106
- sequence string: "AGAAAUGCCCAUGGCCGCAAGCCUUUUGCUUGUCUUACCACAUGAGGAUCACCCAUGUGACAUGGGCUCCUGAUAAU [Zace] (puzzle: Sensor v3, turn-off variant 2)"
  assay endpoint: "apparent KD of MS2 coat protein"
  observed value: 11

---

Tested on: K4 kissing-loop RNA reporter;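 note: bound reporter read as fluorescence of individual clusters on recovered sequencing chips by microscopy, with normalized cluster intensities fitted with a binding model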
method: apparent KD of K4 kissing-loop reporter; higher = weaker reporter binding
protocol conditions: Eterna round: R107; input ligand: arginine 13.2 mM

- sequence string: "GGAUAGGACUGAGGAUAUGGUAGUGAUGUUACCAAACUGGUUAAACAUGUCAGAAAACUGGCAUGACCAGAAGGCGGUCCUAUCG [FmnBX 27 U10+G76]"
  measurement target: "K4 kissing-loop RNA reporter"
  unit of measurement: "µM"
  apparent KD of K4 kissing-loop reporter: 0.0655
- sequence string: "UACAAACGUAGUGAUGUUACGUACUCUGAUACCAGACAACUCUAAGUCCCUUGGCAGCAGUCAUUUUGCUUAUUAUUUUCUCAAA [JR_ExcTheophyA_Sub018]"
  measurement target: "K4 kissing-loop RNA reporter"
  unit of measurement: "µM"
  apparent KD of K4 kissing-loop reporter: 0.102
- sequence string: "AAGCAGUCACUCGAAGCCAUCGAAGAUGGACGAGGACCGGUACGGCCGCCACUCGGAGUGAUGUUCCGAAGACUGCAAAAUAAAA"
  measurement target: "K4 kissing-loop RNA reporter"
  unit of measurement: "µM"
  apparent KD of K4 kissing-loop reporter: 0.274
- sequence string: "CAUAGUCACUGUGAUACCAGCCCGACUCUUGGCGUCUGCGGUCAAAGCCCAGUGAUGUUGGGCCCUUGGCAGCAUGGCGGCAACA [Xelexebi]"
  measurement target: "K4 kissing-loop RNA reporter"
  unit of measurement: "µM"
  apparent KD of K4 kissing-loop reporter: 0.114
- sequence string: "UGACUGGACUGAAGGAGCGCUGAACUCCUAGUGAUGUUAGGACAACGAGACAAAGUCUCGCGGCAGGUAGGUCGCAGUCUAGUCU"
  measurement target: "K4 kissing-loop RNA reporter"
  unit of measurement: "µM"
  apparent KD of K4 kissing-loop reporter: 0.119
- sequence string: "UGAUACCAGACUGAUACCAGCCAGUGAUGUUGGCUAAUCCAAGAAGGAGUCAAAGACUCCGGCCCUUGGCAGCAGUCUGGUAUCU [TheoBX 3 #SwitchBubble #StaticStem]"
  measurement target: "K4 kissing-loop RNA reporter"
  unit of measurement: "µM"
  apparent KD of K4 kissing-loop reporter: 0.104
- sequence string: "UGUCAUUGGUCGGCCGCCACUUCAUAGAGAGUGAUGUUCUUUAAGACGGAUCGAAAGAUCUGUCGAAGGACCGGGACCGAUGACU [FiskerMod 10 - Jieux - Same State - Tryptophan B]"
  measurement target: "K4 kissing-loop RNA reporter"
  unit of measurement: "µM"
  apparent KD of K4 kissing-loop reporter: 0.527
- sequence string: "GCGCGGGAGUGAUGUUCCAAGUGGUGUUAACGAGGACCGGUACGGCCGCCACUCGUUACGGCCGGGCCGUAGGAUACACUGGCGC [Same State - Tryptophan A (Freestyle 16)]"
  measurement target: "K4 kissing-loop RNA reporter"
  unit of measurement: "µM"
  apparent KD of K4 kissing-loop reporter: 0.242
- sequence string: "UCUGGUAUAUCUGAUACCAGAGUAUAGUAUCAAUUGCAUAUGGAGUGAUGUUCCAUAUAACUCCCUUGGCAGCAGAUCUAUCUCU [Same State Theophylline B GF 25]"
  measurement target: "K4 kissing-loop RNA reporter"
  unit of measurement: "µM"
  apparent KD of K4 kissing-loop reporter: 0.308
- sequence string: "CAUUCAGUGAUGUUGGAAGGCGAGCGGGAUACCAGCGGAGACUCACGCCCUUGGCAGCCCAUAUAUCCCAGGUAGAUAAUAGUUC [Same State - Theophylline A (Freestyle 5)]"
  measurement target: "K4 kissing-loop RNA reporter"
  unit of measurement: "µM"
  apparent KD of K4 kissing-loop reporter: 0.117
- sequence string: "UGACUGGACUGAAGGAGCGCUAAACUCCUAGUGAUGUUAGGAAAUACGAGACAAAGUCUCGGGCAGGUAGGUCGCAGUCUAGUCU [ArgBS 19 #SwitchBubble #StaticStem]"
  measurement target: "K4 kissing-loop RNA reporter"
  unit of measurement: "µM"
  apparent KD of K4 kissing-loop reporter: 0.118
